Measured values drawn from patent US7687054B2 for this set.

# testMethodNotes: Glass transition temperature (Tg) by modulated DSC
# Format: physicochemical
# testParameters: PLA/Drug mole/mole ratio 0 (drug alone)
Where a name gives a salt, the structure may show the parent alone.
The molecules listed here are annotated with their Tg.
Kindly provide the numeric value in °C only, without the unit symbol.

>>> observedvalue("CC(C)(C)NCC(O)c1ccc(O)c(CO)c1 (stereo not shown)")
48.9

Item: `[H]/N=C(\N/C(=N/[H])NCCCCCCNC(=N)NC(=N)Nc1ccc(Cl)cc1)Nc1ccc(Cl)cc1` | Tg: 38.5

Entry CN(C)[C@@H]1C(O)=C(C(N)=O)C(=O)[C@@]2(O)C(O)=C3C(=O)c4c(O)cccc4[C@@](C)(O)[C@H]3C[C@@H]12 [Tetracycline HCl] , Tg reported as 50.5

* * *

# testMethodNotes: Glass transition temperature (Tg) by modulated DSC
# Type: physicochemical
# testParameters: PLA/Drug mole/mole ratio 0 (drug alone); HCl
Where a name gives a salt, the structure may show the parent alone.
propertyLabel: Tg (°C)
Give the number; °C is assumed, so skip it.

Briefly, Tg measured for CCN(CC)CC(=O)Nc1c(C)cccc1C [Lidocaine HCl] : 30.7
